Attribution: ChEMBL document CHEMBL2390885

ASSAY SUMMARY: Half life in dog at 2.5 mg/kg, po
TEST CONTEXT: in vivo
MEASURED QUANTITY: half-life (h)
Lab book: enter the figure in h, no units written.

Given the compound `CC(C)c1ccc2c(Nc3cc(C(=O)N[C@@H](C)c4ccccc4)ccc3Sc3ccc(N)cc3)ncnc2n1` , what is its reported half-life?
3

----------
Recorded measurements of EC50, one per entry
System: Hepatitis C virus
ASSAY SUMMARY: Antiviral activity against Hepatitis C virus genotype 1b by replicon assay
Format: functional, organism-based, Hepacivirus hominis
Lab book: enter the figure in nM, no units written.

CC(C)c1ccc2c(Nc3cc(C(=O)NC(C)c4ccncc4)ccc3Sc3ccc(N)cc3)ncnc2n1 (centres undefined) :: 331
CC(C)c1ccc2c(Nc3cc(C(=O)NC(C)(C)c4ccccc4)ccc3Sc3ccc(N)cc3)ncnc2n1 :: 181

Given the molecule `CC(C)c1ccc2c(Nc3cc(C(=O)N[C@H](C)c4ccccc4)ccc3Sc3ccc(N)cc3)ncnc2n1` , what is its reported EC50?
100

Given the molecule `CC(C)c1ccc2c(Nc3cc(C(=O)N[C@H](c4ccccc4)C(F)(F)F)ccc3Sc3ccc(N)cc3)ncnc2n1` , what is its reported EC50?
2
